- study.target: Dual specificity protein phosphatase 3 (Homo sapiens) (UniProt P51452)
- Sequence (P51452 whole entry, looked up): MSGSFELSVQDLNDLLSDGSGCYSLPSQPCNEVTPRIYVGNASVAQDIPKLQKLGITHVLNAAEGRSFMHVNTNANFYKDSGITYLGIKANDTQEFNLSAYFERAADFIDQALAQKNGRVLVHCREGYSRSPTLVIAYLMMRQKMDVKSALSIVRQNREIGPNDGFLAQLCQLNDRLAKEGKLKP
- method.notes: VHR1 phosphatase inhibitors, biochemical (AID 1878)
- test.conditions: recombinant VHR phosphatase, fluorogenic substrate; at 13.3 µM; active compounds read high
Among all 1,000 compounds or so, about 200 (20%) were called active. These entries were drawn from the full list. Entries with a potency or affinity are not part of this list.
reported.metric: inhibition (%)

[
  {
    "compound": "Cc1ccc(N=Nc2cc(C)ccc2O)c(C)c1",
    "measurement": 0.1
  },
  {
    "compound": "O=C(CSc1nc2ccccc2[nH]1)NCCN1CCCCC1",
    "measurement": -5.4
  },
  {
    "compound": "Cc1ccc(NC2CCCN(C(=O)c3ccccn3)C2)cc1C (stereo not drawn)",
    "measurement": -5.3
  },
  {
    "compound": "O=C(O)CC1OCC=C2CN3CCC45c6ccccc6NC4C1C2CC35 (stereo not drawn)",
    "measurement": -2.6
  },
  {
    "compound": "Cc1nc2sccn2c(=O)c1S(=O)(=O)Nc1ccc(N2CCN(S(C)(=O)=O)CC2)cc1",
    "measurement": -12.5
  },
  {
    "compound": "c1ccc(NC2=NCCCS2)cc1",
    "measurement": -2.2
  },
  {
    "compound": "Cc1cc(C)c(S(=O)(=O)/N=C2/C=C(Sc3ncn[nH]3)C(=O)c3ccccc32)cc1C",
    "measurement": 15.8
  },
  {
    "compound": "CCCOc1ccc(Cn2c(=O)oc3ccc(C)cc32)cc1",
    "measurement": 7.7
  },
  {
    "compound": "COc1cc(NC(=O)c2noc(C)c2[N+](=O)[O-])c(OC)cc1Cl",
    "measurement": -2.3
  },
  {
    "compound": "O=c1[nH]c(=O)c2nc3c4ccccc4c4ccccc4c3nc2[nH]1",
    "measurement": 80.4
  },
  {
    "compound": "Cc1ccc(S(=O)(=O)N2CCCCC2)c2nsnc12",
    "measurement": -2
  },
  {
    "compound": "COC(=O)c1ccccc1NC(=O)c1cc2ccccc2o1",
    "measurement": 12.8
  },
  {
    "compound": "COc1ccc2c(c1)c(C(=O)N/N=C/c1ccc(OC)c(OC)c1)c(C)n2C",
    "measurement": -4.6
  },
  {
    "compound": "Cc1ccccc1-c1nc(CS(=O)(=O)CC(=O)NC2CCCC2)c(C)o1",
    "measurement": 7.2
  },
  {
    "compound": "COc1ccc(OC)c(NC(=O)Cc2coc3ccc4ccccc4c23)c1",
    "measurement": -4.5
  },
  {
    "compound": "COc1ccc2nc(C)cc(SCC(=O)N/N=C/c3c(OC)ccc4ccccc34)c2c1",
    "measurement": 92
  },
  {
    "compound": "C/C(=N\\NC(=O)c1cc(O)cc(O)c1)c1ccc(NC(=O)Cc2ccccc2)cc1",
    "measurement": 96.6
  },
  {
    "compound": "Cc1cccc(C(=O)NCCCn2ccnc2)c1C",
    "measurement": -6.9
  },
  {
    "compound": "Cc1ccccc1N1C(=O)C2ON(c3ccccc3)C(c3ccncc3)C2C1=O (stereo not drawn)",
    "measurement": -3.4
  },
  {
    "compound": "O=C1CCCN1CCC(=O)N1CCCC(CO)(Cc2ccccc2)C1 (stereo not drawn)",
    "measurement": 26.9
  },
  {
    "compound": "CCC(=O)NC1=C(Nc2ccc(N)cc2)C(=O)c2ccccc2C1=O",
    "measurement": -7.2
  },
  {
    "compound": "COC(=O)c1ccccc1NC(=O)CCS(=O)(=O)c1ccc(Br)cc1",
    "measurement": 89.7
  },
  {
    "compound": "N#Cc1c(N2CCCC(O)C2)nc(N)c2c(N)nc3c(c12)CC(=O)N3C12CC3CC(CC(C3)C1)C2 (stereo not drawn)",
    "measurement": -7.9
  }
]
